Here, each record is paired with measured EC50 data.
# target-under-test: TRPML1 (Homo sapiens, UniProt Q9GZU1)
# Construct: expressed in transfected cells; host or cells: HEK T-REx cells stably expressing GCaMP6f and TRPML1
# Sequence (Q9GZU1 whole entry): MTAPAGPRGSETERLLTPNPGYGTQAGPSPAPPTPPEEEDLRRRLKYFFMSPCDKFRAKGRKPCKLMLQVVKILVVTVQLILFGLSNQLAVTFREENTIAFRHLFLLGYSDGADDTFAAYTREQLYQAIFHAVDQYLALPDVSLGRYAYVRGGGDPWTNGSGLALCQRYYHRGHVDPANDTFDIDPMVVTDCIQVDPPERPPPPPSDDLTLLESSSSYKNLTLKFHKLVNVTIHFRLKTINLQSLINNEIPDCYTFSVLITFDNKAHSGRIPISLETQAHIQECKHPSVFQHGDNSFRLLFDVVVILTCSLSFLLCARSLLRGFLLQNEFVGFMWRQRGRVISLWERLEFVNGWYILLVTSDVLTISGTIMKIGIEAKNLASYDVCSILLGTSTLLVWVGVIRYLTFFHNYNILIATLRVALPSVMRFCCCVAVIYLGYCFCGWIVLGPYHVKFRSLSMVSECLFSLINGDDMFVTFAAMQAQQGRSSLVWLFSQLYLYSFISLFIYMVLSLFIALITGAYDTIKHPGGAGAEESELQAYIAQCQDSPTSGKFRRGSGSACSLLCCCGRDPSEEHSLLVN
# assay-procedure: Cellular TRPML1 assay (FLIPR, GCaMP6f calcium read-out)
# Type: cell-based
# experimental-setup: HEKT-REx/GCaMP6f/TRPML1 cells, FLIPR TETRA, kinetic response over 300 seconds; read-out: TRPML1 FLIPR pEC50 (converted)
measurement-type: EC50

INSERT INTO results (compound, target_under_test, recorded_measurement) VALUES
  ('COCc1oc(N2CC3(C2)CC(F)(F)C3)nc1C(=O)Nc1ccc(N2CCCCC2)c(F)c1', 'TRPML1 (Homo sapiens, UniProt Q9GZU1)', '1000 to 10000 nM'),
  ('CC(C)OCc1oc(N2CCCC2)nc1C(=O)Nc1ccc(N2CCCCC2)c(F)c1', 'TRPML1 (Homo sapiens, UniProt Q9GZU1)', '1000 to 10000 nM'),
  ('CCC1(COC)CN(c2nc(C(=O)Nc3cc(C)c(O[C@@H]4C[C@@H]5C[C@@H]5C4)c(F)c3)c(CC(F)(F)F)o2)C1', 'TRPML1 (Homo sapiens, UniProt Q9GZU1)', '10 to 1000 nM'),
  ('O=C(Nc1ccc(N2CCCCC2)c(F)c1)c1nc(N2CCC3(CCOC3)C2)oc1CC(F)(F)F (stereo not shown)', 'TRPML1 (Homo sapiens, UniProt Q9GZU1)', '1000 to 10000 nM');

Each recorded value in this set is attributed to patent US12098145B2.
